Target: Neutrophil elastase (Homo sapiens)
Sequence (whole entry): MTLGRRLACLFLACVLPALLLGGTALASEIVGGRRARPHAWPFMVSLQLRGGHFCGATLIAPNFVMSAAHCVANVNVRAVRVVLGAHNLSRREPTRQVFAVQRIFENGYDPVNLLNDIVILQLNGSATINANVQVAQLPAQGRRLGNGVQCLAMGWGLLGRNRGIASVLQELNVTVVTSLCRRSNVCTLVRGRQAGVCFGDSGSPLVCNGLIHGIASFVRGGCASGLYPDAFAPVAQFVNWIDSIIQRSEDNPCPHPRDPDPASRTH
Assay: Apparent second-order inactivation rate constant was evaluated against human leukocyte Elastase
Type: functional
OBSERVED_PROPERTY: K obs / 1 1/Ms

INSERT INTO results (compound, target_or_system, observed_value) VALUES
  ('O=C(CSc1ccccc1)OCN1C(=O)c2ccccc2S1(=O)=O', 'Neutrophil elastase (Homo sapiens)', 1790),
  ('O=C(/C=C/Sc1ccccc1)OCN1C(=O)c2ccccc2S1(=O)=O', 'Neutrophil elastase (Homo sapiens)', 8390),
  ('O=C(/C=C/c1ccccc1)OCN1C(=O)c2ccccc2S1(=O)=O', 'Neutrophil elastase (Homo sapiens)', 2240),
  ('O=C1c2ccccc2S(=O)(=O)N1Cn1ccnc1', 'Neutrophil elastase (Homo sapiens)', 40),
  ('O=C(/C=C\Sc1ccccc1)OCN1C(=O)c2ccccc2S1(=O)=O', 'Neutrophil elastase (Homo sapiens)', 5700),
  ('O=C1c2ccccc2S(=O)(=O)N1CF', 'Neutrophil elastase (Homo sapiens)', 4750),
  ('O=C(CS(=O)(=O)c1ccccc1)OCN1C(=O)c2ccccc2S1(=O)=O', 'Neutrophil elastase (Homo sapiens)', 780),
  ('O=C(C[S+]([O-])c1ccccc1)OCN1C(=O)c2ccccc2S1(=O)=O (stereo not given)', 'Neutrophil elastase (Homo sapiens)', 800);

1: CC(=O)OCN1C(=O)c2ccccc2S1(=O)=O
2: O=C(CCc1ccccc1)OCN1C(=O)c2ccccc2S1(=O)=O
### Prompt // task: argmin of K obs / 1 1/Ms over [ 1 , 2 ] Let me know the label of the one you choose.
### Response 1

The measurements presented in this section are drawn from ChEMBL document CHEMBL1126860.
